CONDITIONS_USED: buffer; pH 7.4; 200.0 µM
PARAMETER: solubility kinetic

Before answering, review these 2 worked examples.
Query :: Field request: solubility kinetic | item: CSCCC(NC(=O)c1cccc(C)c1)C(=O)NCc1cccs1 (stereo not drawn)
Result :: > 54.4 µg/mL

Query :: Same thing, different compound: Cc1cc(NC(=O)c2ccc(COc3ccccc3Cl)o2)no1
Result :: < 0.4 µg/mL

Now for a further compound.
Query :: Entry under review: Cc1nc([N+](=O)[O-])cn1CCC#N . Reported solubility kinetic?
Result :: > 27 µg/mL

* * *

CONDITIONS_USED: buffer; pH 7.4; 200.0 µM
Recorded log10 solubility kinetic for the following molecules
Note: values are log10 of solubility kinetic expressed in µg/mL.

Query :: Sample O=C1CCCc2nc3c(cc21)C(O)Oc1ccccc1-3 (centres undefined) — what was its log10 solubility kinetic?
Result :: 1.29

Query :: What do you have for COc1cccc(C(=O)NC23CC4CC(CC(C4)C2)C3)c1 ?
Result :: 1.39

Query :: Could you do the same for O=[N+]([O-])c1cc(C(F)(F)F)ccc1NCCc1ccncc1 , please?
Result :: 0.20

Query :: Also check Cc1ccc(NC(=O)CN2C(=O)NC(C)(CC(C)C)C2=O)c(Br)c1 (centres undefined)
Result :: 1.74

Query :: Also, O=C(c1cccc(Cl)c1)N1CCN(Cc2ccccc2)CC1 please.
Result :: 1.67

Query :: Another molecule: COc1cccc(NC(=O)c2ccccc2-c2ccccc2C(=O)O)c1
Result :: 1.72

Query :: // query: O=C(Nc1cccc(O)c1)c1cc(-c2ccccc2Cl)on1
Result :: -0.10

Query :: Item: O=C(COc1ccccc1Cl)NCCNC(=O)c1cnccn1
Result :: 1.60

Query :: Follow-up item: COc1ccc(CNC(=O)CC2Sc3ccccc3NC2=O)cc1 (centres undefined)
Result :: 0.20
